# MEASURED ON: α3β4 nAChR (Homo sapiens, UniProt P30926+P32297)
# MEASUREMENT DESCRIPTION: biochemical
// reported Ki per item
Numeric answer only, unit nM assumed.

CHEMICAL STRING	UNITS TEXT	Ki
O=c1cccc2n1C[C@@H]1CNC[C@H]2C1	nM	8.52
c1cncc([C@@H]2CCCCN2)c1	nM	528

Challenge: Hello, I am looking for reported Ki with α3β4 nAChR (Homo sapiens, UniProt P30926+P32297) for c1cncc([C@@H]2CCCN2)c1 . Could you help?
Response given: 35.6

====

# MEASURED ON: α3β4α5 nAChR (Homo sapiens, UniProt P30532+P30926+P32297)
# Sequence (P32297 32-505): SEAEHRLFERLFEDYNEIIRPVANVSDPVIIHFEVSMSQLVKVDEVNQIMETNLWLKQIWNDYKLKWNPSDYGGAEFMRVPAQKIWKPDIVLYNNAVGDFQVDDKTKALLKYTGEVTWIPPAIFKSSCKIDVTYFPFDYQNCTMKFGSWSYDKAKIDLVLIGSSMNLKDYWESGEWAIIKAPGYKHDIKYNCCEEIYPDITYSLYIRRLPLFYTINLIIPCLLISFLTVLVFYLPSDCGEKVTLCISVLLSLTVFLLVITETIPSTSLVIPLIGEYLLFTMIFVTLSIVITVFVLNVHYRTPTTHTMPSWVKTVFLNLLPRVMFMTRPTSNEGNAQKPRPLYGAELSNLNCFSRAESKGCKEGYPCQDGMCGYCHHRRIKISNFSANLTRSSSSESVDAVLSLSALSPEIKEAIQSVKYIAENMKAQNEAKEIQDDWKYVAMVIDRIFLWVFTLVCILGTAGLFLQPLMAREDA
# Sequence (P30926 22-498): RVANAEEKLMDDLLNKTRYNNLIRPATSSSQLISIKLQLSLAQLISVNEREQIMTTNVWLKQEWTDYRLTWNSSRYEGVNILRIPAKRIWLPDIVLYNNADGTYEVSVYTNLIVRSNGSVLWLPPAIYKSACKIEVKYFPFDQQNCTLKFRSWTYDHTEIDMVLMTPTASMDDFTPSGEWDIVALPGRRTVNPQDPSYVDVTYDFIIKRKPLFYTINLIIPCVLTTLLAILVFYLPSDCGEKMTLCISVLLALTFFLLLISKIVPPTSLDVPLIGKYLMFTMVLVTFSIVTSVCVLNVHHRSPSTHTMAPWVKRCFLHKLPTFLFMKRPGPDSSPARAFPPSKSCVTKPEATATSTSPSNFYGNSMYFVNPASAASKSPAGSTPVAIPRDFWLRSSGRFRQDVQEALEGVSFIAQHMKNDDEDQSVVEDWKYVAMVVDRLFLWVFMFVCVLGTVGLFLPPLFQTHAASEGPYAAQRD
# Sequence (P30532 23-468): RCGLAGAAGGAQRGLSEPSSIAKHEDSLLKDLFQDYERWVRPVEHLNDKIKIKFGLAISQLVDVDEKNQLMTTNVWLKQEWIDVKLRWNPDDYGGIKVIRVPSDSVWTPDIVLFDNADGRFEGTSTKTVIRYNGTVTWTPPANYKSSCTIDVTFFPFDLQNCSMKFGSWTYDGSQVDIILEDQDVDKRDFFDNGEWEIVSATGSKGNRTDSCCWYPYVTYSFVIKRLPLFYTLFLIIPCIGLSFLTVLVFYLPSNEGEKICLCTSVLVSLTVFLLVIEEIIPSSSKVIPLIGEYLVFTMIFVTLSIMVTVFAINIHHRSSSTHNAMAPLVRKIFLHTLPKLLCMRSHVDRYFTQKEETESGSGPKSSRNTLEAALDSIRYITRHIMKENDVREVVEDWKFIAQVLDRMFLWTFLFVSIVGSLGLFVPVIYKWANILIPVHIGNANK
# MEASUREMENT DESCRIPTION: biochemical
ASSAY READOUT: Ki (nM)
Numeric answer only, unit nM assumed.

Reference set, count: 2
CHEMICAL STRING	Ki, nM
O=c1cccc2n1C[C@@H]1CNC[C@H]2C1	5.4
c1cncc([C@@H]2CCCN2)c1	20.8

Query compound follows.
Challenge: Please give the measured Ki for this compound: c1cncc([C@@H]2CCCCN2)c1
Response given: 67.5

====

# MEASURED ON: α3β4 nAChR (Homo sapiens, UniProt P30926+P32297)
# MEASUREMENT DESCRIPTION: biochemical
ASSAY READOUT: pKd
As a rule, pKd stands for the negative log10 of the concentration, concentration in M.

CHEMICAL STRING	pKd
c1cncc([C@@H]2CCCN2)c1	7.44

Query compound follows.
Challenge: Please give the measured pKd for this compound: O=c1cccc2n1C[C@@H]1CNC[C@H]2C1
Response given: 8.07
